Origin of measurements: paper PMC6804157

Test system: third instar larvae of Spodoptera litura
Assay: whole plant or invertebrate
Assay type: in vivo
Conditions: read-out: Larvicidal activity (%) at 48 h, replicate 2; 48 h; 25 ppm; listed as Ref.
experimental readout: mortality (%)
All answers are understood in %, so give the number only.

input: Would you mind telling me what mortality value was observed for CNC(=O)c1cc(Cl)cc(C)c1NC(=O)c1cc(Br)nn1-c1ncccc1Cl [Chlorantraniliprole, chlorantraniliprole, reference compound] ?
output: 70

---

Test system: third instar larvae of Spodoptera litura
Test: whole plant or invertebrate
Type: in vivo
Details: read-out: Larvicidal activity (%) at 24 h, replicate 2; 24 h; 25 ppm; listed as Ref.
experimental readout: mortality (%)
The reply should be a number in %, with the unit left off.

input: Under third instar larvae of Spodoptera litura: mortality value of CNC(=O)c1cc(Cl)cc(C)c1NC(=O)c1cc(Br)nn1-c1ncccc1Cl [Chlorantraniliprole, chlorantraniliprole, reference compound] ?
output: 20

---

Tested on: third instar larvae of Spodoptera litura
Test: whole plant or invertebrate
Assay type: in vivo
Settings: read-out: Larvicidal activity (%) at 96 h, replicate 1; 96 h; 25 ppm
experimental readout: mortality (%)
# unit: % | format: bare number

input: For the molecule shown here, CNC(=O)c1cc(Cl)cc(C)c1NC(=O)c1cc(Br)nn1-c1ncccc1Cl [Chlorantraniliprole, chlorantraniliprole, reference compound] , give the reported mortality.
output: 100

---

Tested on: third instar larvae of Spodoptera litura
Assay: whole plant or invertebrate
Type: in vivo
Conditions: read-out: Larvicidal activity (%) at 96 h, replicate 2; 96 h; 25 ppm
experimental readout: mortality
Answer with the value and then the unit.

input: Quick check: mortality of CNC(=O)c1cc(Cl)cc(C)c1NC(=O)c1cc(Br)nn1-c1ncccc1Cl [Chlorantraniliprole, chlorantraniliprole, reference compound] ?
output: 100%

---

Assay: pH-metric log P (ACD/Labs T3 method)
Type: physicochemical
Decide using logP alone. Strictly below 4: MET. Equal to or above 4: NOT MET.

Field: example entries. Status: answers known.
CNC(=O)c1cc(S(C)=NC(=O)C(F)(F)F)cc(C)c1NC(=O)c1cc(Br)nn1-c1ncccc1Cl (stereo not drawn) [Compound 15a]: MET
CNC(=O)c1cc(S(C)(=O)=O)cc(C)c1NC(=O)c1cc(Br)nn1-c1ncccc1Cl [Compound 16b]: MET
CNC(=O)c1cc(SC)cc(C)c1NC(=O)c1cc(Br)nn1-c1ncccc1Cl [Compound 14]: MET
CNC(=O)c1cc(C#N)cc(C)c1NC(=O)c1cc(Br)nn1-c1ncccc1Cl [Cyantraniliprole, cyantraniliprole, reference compound]: MET
CNC(=O)c1cc(S(C)(=O)=NC(=O)C(F)(F)F)cc(C)c1NC(=O)c1cc(Br)nn1-c1ncccc1Cl (stereo not drawn) [Compound 16a]: NOT MET

Consider the additional compound presented here.
input: Is logP strictly under 4 for the entry CNC(=O)c1cc([S+](C)[O-])cc(C)c1NC(=O)c1cc(Br)nn1-c1ncccc1Cl (stereo not drawn) [Compound 15b] ?
output: MET

---

Tested on: third instar larvae of Spodoptera litura
Assay: whole plant or invertebrate
Type: in vivo
Conditions: read-out: Larvicidal Activity (%) at Time (h) 72 h; third instar larvae of S. litura; 72 h; concentration of 14 and 15a 50 ppm
experimental readout: mortality (%)
Supply the numeric figure in %, leaving out any unit text.

CNC(=O)c1cc([S+](C)[O-])cc(C)c1NC(=O)c1cc(Br)nn1-c1ncccc1Cl (stereo not shown) [Compound 15b]: 0
CNC(=O)c1cc(SC)cc(C)c1NC(=O)c1cc(Br)nn1-c1ncccc1Cl: 46.7
CNC(=O)c1cc(S(C)(=O)=O)cc(C)c1NC(=O)c1cc(Br)nn1-c1ncccc1Cl [Compound 16b]: 0

Query compound follows.
input: // returns reported mortality for input CNC(=O)c1cc(S(C)(=O)=NC(=O)C(F)(F)F)cc(C)c1NC(=O)c1cc(Br)nn1-c1ncccc1Cl (stereo not shown) [Compound 16a]
output: 0
